Origin of values: patent US7351709B2

EXPERIMENTAL_SYSTEM: ERα (Homo sapiens, UniProt P03372)
Construct: expressed in transfected cells; host or cells: HAECT-1 cells infected with Ad5-wt-ER adenovirus
Sequence (P03372 whole entry, species assumed): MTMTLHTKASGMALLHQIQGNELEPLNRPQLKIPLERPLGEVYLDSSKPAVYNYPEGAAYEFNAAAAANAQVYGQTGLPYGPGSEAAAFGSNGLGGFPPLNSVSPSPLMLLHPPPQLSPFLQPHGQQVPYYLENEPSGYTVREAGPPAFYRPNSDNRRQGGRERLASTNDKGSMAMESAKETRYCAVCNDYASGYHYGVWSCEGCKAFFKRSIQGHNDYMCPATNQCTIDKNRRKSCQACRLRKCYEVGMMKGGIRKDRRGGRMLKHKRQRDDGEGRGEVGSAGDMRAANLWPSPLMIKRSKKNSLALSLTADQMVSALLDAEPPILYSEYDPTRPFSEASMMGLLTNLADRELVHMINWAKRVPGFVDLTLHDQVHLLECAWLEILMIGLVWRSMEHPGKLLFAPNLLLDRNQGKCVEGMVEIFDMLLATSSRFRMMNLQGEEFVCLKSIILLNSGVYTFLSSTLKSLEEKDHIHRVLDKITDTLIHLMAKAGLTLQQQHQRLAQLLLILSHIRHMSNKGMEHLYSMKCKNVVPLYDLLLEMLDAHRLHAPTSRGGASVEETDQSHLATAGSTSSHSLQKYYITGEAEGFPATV
ASSAY_PROTOCOL: IL-6 assay: inhibition of IL-1β induced IL-6 expression in ERα infected HAECT-1 cells
Type: cell-based
SETUP_CONDITIONS: efficacy relative to the maximal inhibition observed with E2
Quick rule: ER/IL-6 % E2 of at least 80 % E2 means True, below that means False.

smiles_text=CC[C@H]1C(=O)N(CC)c2ccc(F)cc2N1C(=O)c1ccc(O)cc1 experimental_system="ERα (Homo sapiens, UniProt P03372)" discrete_label=False
smiles_text=CC[C@H]1C(=O)N(CC)c2ccc(C)cc2N1S(=O)(=O)c1ccc(O)cc1 experimental_system="ERα (Homo sapiens, UniProt P03372)" discrete_label=False
smiles_text=CC[C@H]1C(=O)N(CC)c2cc(Br)ccc2N1S(=O)(=O)c1ccc(O)cc1 experimental_system="ERα (Homo sapiens, UniProt P03372)" discrete_label=False
smiles_text=CC[C@@H]1C(=O)N(CC(C)C)c2ccc(F)cc2N1C(=O)c1ccc(O)cc1 experimental_system="ERα (Homo sapiens, UniProt P03372)" discrete_label=True
smiles_text=CC[C@H]1C(=O)N(C)c2cc(Br)ccc2N1S(=O)(=O)c1ccc(O)cc1 experimental_system="ERα (Homo sapiens, UniProt P03372)" discrete_label=True
smiles_text=CC[C@@H]1C(=O)N(CC)c2ccc(F)cc2N1C(=O)c1ccc(O)cc1O experimental_system="ERα (Homo sapiens, UniProt P03372)" discrete_label=True
smiles_text=CC[C@H]1C(=O)N(C)c2cc(F)ccc2N1S(=O)(=O)c1ccc(O)cc1 experimental_system="ERα (Homo sapiens, UniProt P03372)" discrete_label=True
